Origin of measurements: PubChem BioAssay (Tox21)

Measurement notes: qHTS assay to identify small molecule agonists of the AP-1 signaling pathway (AID 1159526)
Measurement context: ME-180 (cervical carcinoma) AP-1-bla reporter, beta-lactamase FRET ratio, 5 h; series mostly up to 76.8 µM
Results filed as inconclusive are left out. Activity calls are given as the source filed them. Calls come from the whole dose curve. Residues, ends and D or L forms follow the SMILES beside them.
Quantity name: outcome

// solved cases for outcome follow
compound="COC(=O)[C@H](Cc1ccccc1)NC(=O)[C@@H](N)CC(=O)O (H-Asp-Phe-OMe)" reported=inactive
compound=Nc1ccc(S(=O)(=O)c2ccc(N)cc2)cc1 reported=inactive
compound=Cc1cc(=O)n(-c2ccccc2)n1C reported=inactive
compound=O=S(=O)(O)NC1CCCCC1 reported=inactive
compound=O=C(O)c1cc(N=Nc2ccc(S(=O)(=O)Nc3ccccn3)cc2)ccc1O reported=inactive

Input line: Item `CCCCOC(=O)CC(CC(=O)OCCCC)(OC(C)=O)C(=O)OCCCC` : provide outcome
Output line: inactive
